system: adipocytes; experiment: Triglyceride accumulation assay in adipocytes; format: cell-based, human; details: adipocytes, 250 nM oligomeric compound, relative to control (1.0); Table 16
In the oligonucleotide strings, read from the 5' end, every base follows the letter of its sugar. An asterisk marks phosphorothioate; unmarked linkages are phosphodiester. Other units and linkages are bracketed, terminal groups are in braces. A string of capitals states the bases alone. e = 2'-O-(2-methoxyethyl) (MOE); [5mC] = 5-methylcytosine
Measure: TG (triglyceride accumulation)

Substance	Measure	Reported Value
327967 (antisense eA*e[5mC]*eT*eG*eT*eA*e[5mC]*eA*eA*eA*e[5mC]*eT*eA*e[5mC]*eT*eA*e[5mC]*e[5mC]*eT*e[5mC]*eA) [compound 327967]	TG (triglyceride accumulation)	0.90
327934 (antisense eG*eG*eT*eA*e[5mC]*eA*eA*eT*e[5mC]*eA*eA*e[5mC]*eG*eG*eT*e[5mC]*eG*eA*eT*eG*eG*eT) [compound 327934]	TG (triglyceride accumulation)	0.62
327890 (antisense eA*eG*e[5mC]*eA*e[5mC]*eA*eA*eA*e[5mC]*eT*eA*e[5mC]*eT*eA*e[5mC]*e[5mC]*eT*e[5mC]*eA) [compound 327890]	TG (triglyceride accumulation)	0.61
327955 (antisense eG*e[5mC]*e[5mC]*e[5mC]*eT*eT*eT*e[5mC]*eA*eT*e[5mC]*eA*eT*eT*eG*e[5mC]*eA*e[5mC]*eT*eG) [compound 327955]	TG (triglyceride accumulation)	0.81
327925 (antisense eT*eA*eG*e[5mC]*eT*eG*eG*eT*eT*eG*eA*eA*eG*eG*eG*eG*eA*e[5mC]*e[5mC]*eA*eA) [compound 327925]	TG (triglyceride accumulation)	0.63
327893 (antisense eA*eA*e[5mC]*e[5mC]*eA*e[5mC]*eA*e[5mC]*eA*eA*e[5mC]*e[5mC]*eT*eA*e[5mC]*eT*eA*e[5mC]*e[5mC]*eT*e[5mC]*eA) [compound 327893]	TG (triglyceride accumulation)	0.95
